Measured MIC of individual entries
Test system: Acinetobacter baumannii MDR ACB from Libya (V4)
Assay comment: MIC assay, CAMHB with alginate oligomer, no visible growth
Assay type: cell-based
Condition set: Acinetobacter baumannii, Table 1; V4 ACB (Libya); OligoCF-5/20 +6% G; read-out: MIC
Give the value in µg/mL but do not write µg/mL after it.

Chemical smiles: C[C@H]1[C@H](NC(=O)/C(=N\OC(C)(C)C(=O)O)c2csc(N)n2)C(=O)N1S(=O)(=O)O
Unit: µg/mL
MIC: 256

Now, please, on to the next compound.
For the compound "O=C(O)c1cn(C2CC2)c2cc(N3CCNCC3)c(F)cc2c1=O" , what MIC is on record?
16

====

Test system: Acinetobacter baumannii (MDR ACB, Libya, V4)
Assay comment: MIC-assay, Mueller-Hinton broth with G-block alginate, 384-well, OD600
Condition set: Table 9, G-block (OligoCF-5/20) 10%
MIC values for the molecules below.
I only need the number, in µg/mL, no unit after it.

Worked examples, 2 molecules total:
Chemical smiles: CC(C)(O/N=C(\C(=O)N[C@@H]1C(=O)N2C(C(=O)[O-])=C(C[n+]3ccccc3)CS[C@H]12)c1csc(N)n1)C(=O)O
System under test: Acinetobacter baumannii (MDR ACB, Libya, V4)
Value reported: 8

Chemical smiles: C[C@H]1[C@H](NC(=O)/C(=N\OC(C)(C)C(=O)O)c2csc(N)n2)C(=O)N1S(=O)(=O)O
System under test: Acinetobacter baumannii (MDR ACB, Libya, V4)
Value reported: 0.5

Could you now look at the following molecule, please?
So what does the record say about MIC for "CC[C@H]1OC(=O)[C@H](C)[C@@H](O[C@H]2C[C@@](C)(OC)[C@@H](O)[C@H](C)O2)[C@H](C)[C@@H](O[C@@H]2O[C@H](C)C[C@H](N(C)C)[C@H]2O)[C@](C)(O)C[C@@H](C)C(=O)[C@H](C)[C@@H](O)[C@]1(C)O" ?
2

====

Test system: V12 5725 (Wales) Klebsiella pneumoniae
Assay comment: MIC assay, CAMHB with alginate oligomer, no visible growth
Type: cell-based
Condition set: Table 5; V12 MDR Kleb pneu; OligoCF-5/20 +10% G
Marks after values point to notes of the source that are not given here.
Below, each entry is listed with its recorded MIC.

Chemical smiles: C[C@H]1[C@H](NC(=O)/C(=N\OC(C)(C)C(=O)O)c2csc(N)n2)C(=O)N1S(=O)(=O)O
System under test: V12 5725 (Wales) Klebsiella pneumoniae
Experimental readout: MIC
Value reported: 64^† μg/ml
--
Chemical smiles: CN(C)[C@@H]1C(O)=C(C(N)=O)C(=O)[C@@]2(O)C(O)=C3C(=O)c4c(O)cccc4[C@@](C)(O)[C@H]3[C@H](O)[C@@H]12
System under test: V12 5725 (Wales) Klebsiella pneumoniae
Experimental readout: MIC
Value reported: 1 µg/mL

In the following, a different compound is considered.
So what does the record say about MIC for "CC[C@H]1OC(=O)[C@H](C)[C@@H](O[C@H]2C[C@@](C)(OC)[C@@H](O)[C@H](C)O2)[C@H](C)[C@@H](O[C@@H]2O[C@H](C)C[C@H](N(C)C)[C@H]2O)[C@](C)(OC)C[C@@H](C)C(=O)[C@H](C)[C@@H](O)[C@]1(C)O" ?
512 µg/mL

====

Tested on: strains of Klebsiella pneumoniae displaying MDR phenotypes
Assay comment: MIC-assay, Mueller-Hinton broth with G-block alginate, 384-well, OD600 (Table 10)
Format: cell-based
Condition set: Klebsiella pneumoniae (K3, India, V8) MDR, G-block (OligoCF-5/20) 2%, read-out: MIC
Entries and their MIC
Provide only the numeric value, understood in µg/mL.

Answered examples (6):
Chemical smiles: CN(C)[C@@H]1C(O)=C(C(N)=O)C(=O)[C@@]2(O)C(O)=C3C(=O)c4c(O)cccc4[C@@](C)(O)[C@H]3[C@H](O)[C@@H]12
MIC / µg/mL: 512
--
Chemical smiles: CC[C@H]1OC(=O)[C@H](C)[C@@H](O[C@H]2C[C@@](C)(OC)[C@@H](O)[C@H](C)O2)[C@H](C)[C@@H](O[C@@H]2O[C@H](C)C[C@H](N(C)C)[C@H]2O)[C@](C)(O)C[C@@H](C)/C(=N\OCOCCOC)[C@H](C)[C@@H](O)[C@]1(C)O
MIC / µg/mL: 256
--
Chemical smiles: CC[C@H]1OC(=O)[C@H](C)[C@@H](O[C@H]2C[C@@](C)(OC)[C@@H](O)[C@H](C)O2)[C@H](C)[C@@H](O[C@@H]2O[C@H](C)C[C@H](N(C)C)[C@H]2O)[C@](C)(O)C[C@@H](C)[C@@H]2N[C@@H](COCCOC)O[C@H]([C@H]2C)[C@]1(C)O
MIC / µg/mL: 128
--
Chemical smiles: C[C@H]1[C@H](NC(=O)/C(=N\OC(C)(C)C(=O)O)c2csc(N)n2)C(=O)N1S(=O)(=O)O
MIC / µg/mL: 256
--
Chemical smiles: CC[C@H]1OC(=O)[C@H](C)[C@@H](O[C@H]2C[C@@](C)(OC)[C@@H](O)[C@H](C)O2)[C@H](C)[C@@H](O[C@@H]2O[C@H](C)C[C@H](N(C)C)[C@H]2O)[C@](C)(O)C[C@@H](C)CN(C)[C@H](C)[C@@H](O)[C@]1(C)O
MIC / µg/mL: 8
--
Chemical smiles: O=C(O)c1cn(C2CC2)c2cc(N3CCNCC3)c(F)cc2c1=O
MIC / µg/mL: 32

Next compound, please.
# input compound: "C[C@@H](O)[C@H]1C(=O)N2C(C(=O)O)=C(SCCN=CN)C[C@H]12" ; wanted: its MIC
16

====

System: Pseudomonas aeruginosa (MDR 301, PSA, V2)
Assay comment: MIC-assay, Mueller-Hinton broth with G-block alginate, 384-well, OD600
Condition set: Pseudomonas aeruginosa, Table 8; V2; G-block (OligoCF-5/20) 2%
Experimental readout: MIC (µg/mL)
Give the value, in units of µg/mL, as a plain number.

Compound: C[C@@H](O)[C@H]1C(=O)N2C(C(=O)O)=C(SCCN=CN)C[C@H]12 [Imipenem]
Value reported: 256

Below: the item to evaluate.
Reported MIC, compound CC[C@H]1OC(=O)[C@H](C)[C@@H](O[C@H]2C[C@@](C)(OC)[C@@H](O)[C@H](C)O2)[C@H](C)[C@@H](O[C@@H]2O[C@H](C)C[C@H](N(C)C)[C@H]2O)[C@](C)(O)C[C@@H](C)CN(C)[C@H](C)[C@@H](O)[C@]1(C)O [Azithromycin] : ____
64

====

Below: a set of entries, each annotated with reported MIC.
System: V10 (Egypt) Acinetobacter lwoffii
Assay comment: MIC assay, CAMHB with alginate oligomer, no visible growth
Type: cell-based
Condition set: Acinetobacter lwoffii; Table 5; V10 MDR Acin. lwoff; OligoCF-5/20 0G; read-out: MIC
Give the value in µg/mL but do not write µg/mL after it.

Chemical smiles: CC(C)(O/N=C(\C(=O)N[C@@H]1C(=O)N2C(C(=O)[O-])=C(C[n+]3ccccc3)CS[C@H]12)c1csc(N)n1)C(=O)O
System under test: V10 (Egypt) Acinetobacter lwoffii
Unit: µg/mL
MIC: 2

If you can, please state the reported MIC value of "C[C@@H](O)[C@H]1C(=O)N2C(C(=O)O)=C(S[C@@H]3CN[C@H](C(=O)N(C)C)C3)[C@H](C)[C@H]12" .
1

How about "C[C@H]1[C@H](NC(=O)/C(=N\OC(C)(C)C(=O)O)c2csc(N)n2)C(=O)N1S(=O)(=O)O" ?
32

What do we get for "CN(C)[C@@H]1C(O)=C(C(N)=O)C(=O)[C@@]2(O)C(O)=C3C(=O)c4c(O)cccc4[C@@](C)(O)[C@H]3[C@H](O)[C@@H]12" ?
0.5

====

Tested on: V12 5725 (Wales) Klebsiella pneumoniae
Assay comment: MIC assay, CAMHB with alginate oligomer, no visible growth
Format: cell-based
Condition set: Table 5; V12 MDR Kleb pneu; OligoCF-5/20 +10% G
Experimental readout: MIC

Here is how some compounds turned out for MIC.
Chemical smiles: CC1(C)C[C@@H]1C(=O)N/C(=C\CCCCSC[C@H](N)C(=O)O)C(=O)O
System under test: V12 5725 (Wales) Klebsiella pneumoniae
MIC: <0.5 µg/mL
//
Chemical smiles: CC[C@H]1OC(=O)[C@H](C)[C@@H](O[C@H]2C[C@@](C)(OC)[C@@H](O)[C@H](C)O2)[C@H](C)[C@@H](O[C@@H]2O[C@H](C)C[C@H](N(C)C)[C@H]2O)[C@](C)(O)C[C@@H](C)CN(C)[C@H](C)[C@@H](O)[C@]1(C)O
System under test: V12 5725 (Wales) Klebsiella pneumoniae
MIC: 32 µg/mL

Now, please, on to the next compound.
Tell me the measured MIC of "C[C@@H](O)[C@H]1C(=O)N2C(C(=O)O)=C(S[C@@H]3CN[C@H](C(=O)N(C)C)C3)[C@H](C)[C@H]12" , please.
<0.25 µg/mL
